Tested on: K562 CRISPRi cells
protocol: Perturb-seq pooled growth measurement (sgRNA counts, growth phenotype γ, relative activity)
Assay type: cell-based, human
assay-conditions: sequencing read counts; 10 days of growth (day twelve after transduction)
Perturb-seq pooled growth sgRNA counts, d10 values for the substances below.
I'd appreciate a reply containing only the number, no unit.

A selection of reference data follows.
substance: HSPA5_+_128003624.23-P1P2_08: sgRNA targeting HSPA5, GAGCCGAGTGGGCGACGGTG, SEQ ID NO: 90 (listed as DNA, chemistry not fully specified)
system: K562 CRISPRi cells
numeric-readout: 3487
//
substance: non-targeting_00054: non-targeting negative control sgRNA, GGGCCTGGACGAGCCTAAAA, SEQ ID NO: 163 (listed as DNA, chemistry not fully specified) [reference compound]
system: K562 CRISPRi cells
numeric-readout: 49855

**Query** Identify the reported Perturb-seq pooled growth sgRNA counts, d10 for the following entry. SEC61A1_−_127771295.23-P1_04: sgRNA targeting SEC61A1, GGCACTGAAGTGTCTCTCGG, SEQ ID NO: 87 (listed as DNA, chemistry not fully specified)
**Result** 10772

**Query** Give Perturb-seq pooled growth sgRNA counts, d10 for HSPA9_−_137911079.23-P1P2_00: sgRNA targeting HSPA9, GGAGCTGCGCGATGCGGTGG, SEQ ID NO: 131 (listed as DNA, chemistry not fully specified)
**Result** 835

**Query** // fetch Perturb-seq pooled growth sgRNA counts, d10 given entry BCR_+_23523092.23-P1P2_00: sgRNA targeting BCR, GCGCGCGGGGCCCGTCTCAG, SEQ ID NO: 125 (listed as DNA, chemistry not fully specified)
**Result** 2333

**Query** Given the substance RPS15_−_1438413.23-P1P2_12: sgRNA targeting RPS15, GACCAAAGCGATCTCTTGTG, SEQ ID NO: 63 (listed as DNA, chemistry not fully specified) , write its reported Perturb-seq pooled growth sgRNA counts, d10.
**Result** 19991

**Query** Respond only with Perturb-seq pooled growth sgRNA counts, d10 recorded for RPS14_+_149829238.23-P1P2_02: sgRNA targeting RPS14, GAGGCCCTGGCGCGACAATC, SEQ ID NO: 47 (listed as DNA, chemistry not fully specified)
**Result** 5538
